# Test system: RPMI-8226 leukemia
# ASSAY_EXPLANATION: NCI tumour cell line growth inhibition, 48 h; in the data active = GI50 below about 0.43 µM; inactive = the rest
Bench note: report the call from label 1 (active), label 0 (inactive)

Answered examples (4):
{"MOLECULE": "CCCCCCCC/C=C/CCCCCCCC1=NC(C)(C)CN1CCO", "SYSTEM_UNDER_TEST": "RPMI-8226 leukemia", "CATEGORY": "label 0"}
{"MOLECULE": "CC[C@@H](C)/C=C(C)/C=C/C(=O)c1c(O)c(-c2ccc(O)cc2)cn(O)c1=O", "SYSTEM_UNDER_TEST": "RPMI-8226 leukemia", "CATEGORY": "label 0"}
{"MOLECULE": "CCOc1ccn(-c2ccc(F)cc2)c(=O)c1C(=O)Nc1ccc(Oc2ccnc(N)c2Cl)c(F)c1", "SYSTEM_UNDER_TEST": "RPMI-8226 leukemia", "CATEGORY": "label 0"}
{"MOLECULE": "CN1CCN(C(=O)COc2ccc(/C=C3\\CC4C5CC=C6CC(Cl)CCC6(C)C5CCC4(C)C3=O)cc2)CC1 (stereo not given)", "SYSTEM_UNDER_TEST": "RPMI-8226 leukemia", "CATEGORY": "label 0"}

Just curious, what result did COc1cc(C2c3cc4c(cc3C(OC(=O)C[n+]3ccccc3)C3COC(=O)C23)OCO4)cc(OC)c1OC (stereo not given) get here?
label 1

Each recorded value in this set is attributed to PubChem BioAssay (NCI).
